Please go through the items and note down their IC50 at 24 h.
- protocol_summary: Cytotoxicity on NCTC-Clone 929 fibroblasts (resazurin)
- Assay type: cell-based
- condition_summary: mouse

Challenge: Quick check: IC50 at 24 h of CC(C)c1ccc2c(c1)CCC1[C@](C)(C(=O)OCc3cn(-c4ccccc4)nn3)CCC[C@]21C (stereo partly drawn) ?
Response given: > 256 µg/mL

Challenge: Could you share which IC50 at 24 h value was measured for Cc1ccc(S(=O)(=O)n2cc(CCC(=O)O[C@H]3CC[C@@]4(C)C(CC[C@]5(C)C4CC=C4[C@@H]6CC(C)(C)CC[C@]6(C(=O)O)CC[C@]45C)C3(C)C)nn2)cc1 (stereo partly drawn) ?
Response given: > 256 µg/mL

Challenge: Look up IC50 at 24 h: C#CCCC(=O)O[C@H]1CC[C@@]2(C)C(CC[C@]3(C)C2CC=C2[C@@H]4CC(C)(C)CC[C@]4(C(=O)O)CC[C@]23C)C1(C)C (stereo partly drawn)
Response given: 196 µg/mL

Challenge: I am curious: what IC50 at 24 h value has been reported for COC(=O)[C@]12CCC(C)(C)C[C@H]1C1=CCC3[C@@]4(C)CC[C@H](OC(=O)CCc5cn(S(=O)(=O)c6ccc(C)cc6)nn5)C(C)(C)C4CC[C@@]3(C)[C@]1(C)CC2 (stereo partly drawn) ?
Response given: > 256 µg/mL

Challenge: // returns reported IC50 at 24 h for input CC1(C)CC[C@]2(C(=O)O)CC[C@]3(C)C(=CCC4[C@@]5(C)CC[C@H](OC(=O)CCc6cn(CSc7ccccc7)nn6)C(C)(C)C5CC[C@]43C)[C@@H]2C1 (stereo partly drawn)
Response given: > 256 µg/mL

Challenge: Quick one: IC50 at 24 h of CC(C)c1ccc2c(c1)CCC1[C@](C)(COC(=O)CCc3cn(Cc4cccc(Cl)c4)nn3)CCC[C@]21C (stereo partly drawn) ?
Response given: > 256 µg/mL

Challenge: So what's the measured IC50 at 24 h for this one? CC(C)c1ccc2c(c1)CCC1[C@](C)(COC(=O)CCc3cn(-c4ccccc4)nn3)CCC[C@]21C (stereo partly drawn)
Response given: > 256 µg/mL

Challenge: Which measured IC50 at 24 h value corresponds to COC(=O)[C@]12CCC(C)(C)C[C@H]1C1=CCC3[C@@]4(C)CC[C@H](OC(=O)CCc5cn(Cc6ccc(Cl)cc6)nn5)C(C)(C)C4CC[C@@]3(C)[C@]1(C)CC2 (stereo partly drawn) ?
Response given: > 256 µg/mL

Challenge: Which IC50 at 24 h is listed for CC1(C)CC[C@]2(C(=O)O)CC[C@]3(C)C(=CCC4[C@@]5(C)CC[C@H](OC(=O)CCc6cn(Cc7ccc(Cl)cc7)nn6)C(C)(C)C5CC[C@]43C)[C@@H]2C1 (stereo partly drawn) ?
Response given: > 256 µg/mL

Challenge: Item COC(=O)[C@]12CCC(C)(C)C[C@H]1C1=CCC3[C@@]4(C)CC[C@H](OC(=O)CCc5cn(CSc6ccccc6)nn5)C(C)(C)C4CC[C@@]3(C)[C@]1(C)CC2 (stereo partly drawn) has what recorded IC50 at 24 h?
Response given: > 256 µg/mL

Challenge: Can you look up the measured IC50 at 24 h of CC(C)c1ccc2c(c1)CCC1[C@](C)(C(=O)OCCc3cn(CSc4ccccc4)nn3)CCC[C@]21C (stereo partly drawn) for me?
Response given: 189 µg/mL

Challenge: Value lookup for IC50 at 24 h; key = CC(C)c1ccc2c(c1)CCC1[C@](C)(COC(=O)CCc3cn(Cc4ccccc4)nn3)CCC[C@]21C (stereo partly drawn)
Response given: > 256 µg/mL

The reported numbers originate from paper PMC6155273.
